As shown below, each of these compounds has a reported residual activity value.
- subject-of-test: PHKG2 (human)
- assay-text: radiometric filter-binding kinase assay, Kinase HotSpot
- measurement-setup: compound 0.5 µM; ATP 10 µM
// note: answer is a bare numeric in %

Observe how each entry below is paired with its result.
{"columns": ["structure-smiles", "residual activity (%)"],
 "data": [
  ["COc1cc2ncnc(Nc3ccc(OCc4ccccc4)cc3)c2cc1OC", 97.4],
  ["O=C1Nc2ccc(Br)cc2/C1=C\\c1cc2c([nH]1)CCCC2", 90.5],
  ["CC(C)(C)c1cc(C=C(C#N)C#N)cc(Br)c1O", 106]
]}

PHKG2 (human) residual activity of CO[C@@H]1[C@H](N(C)C(=O)c2ccccc2)C[C@H]2O[C@]1(C)n1c3ccccc3c3c4c(c5c6ccccc6n2c5c31)C(=O)NC4 is 79.7
